Let's look at some binders and their measured koff.
biological target: His peptide-tagged soluble cynoADAM9 (cynoADAM9-His) (cynomolgus monkey); test: SPR (BIACORE), antibody captured, cynoADAM9-His in flow
Note: unit s⁻¹ is implicit; provide only the numeric part.

Could you share which koff value was measured for hMAB-A (2B.2) (antibody, V domains shown) VH: EVQLVESGGGLVKPGGSLRLSCAASGFTFSSYWMHWVRQAPGKGLEWVGEIIPIFGHTNYNEKFKSRFTISLDNSKNTLYLQMGSLRAEDTAVYYCARGGYYYYIGKGVLDYWGQGTTVTVSS VL: DIVMTQSPDSLAVSLGERATISCKASQSVDYSGDSYMNWYQQKPGQPPKLLIYAASDLESGIPARFSGSGSGTDFTLTISSLEPEDFATYYCQQSHEDPFTFGQGTKLEIK ?
6.6e-05

Could you share which koff value was measured for hMAB-A (2D.2) (antibody, V domains shown) VH: EVQLVESGGGLVKPGGSLRLSCAASGFTFSSYWMHWVRQAPGKGLEWVGEIIPIFGHTNYNEKFKSRFTISLDNSKNTLYLQMGSLRAEDTAVYYCARGGYYYYTGKGVLDYWGQGTTVTVSS VL: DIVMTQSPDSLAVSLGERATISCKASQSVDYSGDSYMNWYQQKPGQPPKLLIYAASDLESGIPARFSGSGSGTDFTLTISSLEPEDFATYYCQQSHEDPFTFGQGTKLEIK ?
0.0003

Could you share which koff value was measured for hMAB-A (2.2) (antibody, human IgG1, kappa, V domains shown) VH: EVQLVESGGGLVKPGGSLRLSCAASGFTFSSYWMHWVRQAPGKGLEWVGEIIPIFGHTNYNEKFKSRFTISLDNSKNTLYLQMGSLRAEDTAVYYCARGGYYYYGSRDYFDYWGQGTTVTVSS VL: DIVMTQSPDSLAVSLGERATISCKASQSVDYSGDSYMNWYQQKPGQPPKLLIYAASDLESGIPARFSGSGSGTDFTLTISSLEPEDFATYYCQQSHEDPFTFGQGTKLEIKR ?
0.022
